# Assay Text: self-splicing fitness, log relative to wild type (ln ratio); higher = more splicing; Tetrahymena group I intron in knt gene, E. coli kanamycin selection, DiMSum; sequences stand for … in CUCUCU…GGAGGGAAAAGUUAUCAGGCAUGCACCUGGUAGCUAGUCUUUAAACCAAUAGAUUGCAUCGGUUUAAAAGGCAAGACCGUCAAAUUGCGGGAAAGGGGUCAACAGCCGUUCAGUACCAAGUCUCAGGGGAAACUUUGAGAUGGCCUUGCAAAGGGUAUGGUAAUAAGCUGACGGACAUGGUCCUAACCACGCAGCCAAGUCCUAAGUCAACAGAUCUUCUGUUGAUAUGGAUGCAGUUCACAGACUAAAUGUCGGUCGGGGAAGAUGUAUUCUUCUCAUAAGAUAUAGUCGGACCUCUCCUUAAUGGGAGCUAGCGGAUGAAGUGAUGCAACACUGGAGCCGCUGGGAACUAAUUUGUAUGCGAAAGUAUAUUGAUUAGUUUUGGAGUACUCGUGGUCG;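 note: selection with 25 µg/mL kanamycin versus none on LB agar overnight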
# Experimental Parameters: 30 °C
Below, each of the sequences is paired with its reported self-splicing fitness (ln) value.

Prompt: # lookup: self-splicing fitness (ln) of GUGAAGCAAUAUUACGACUC
Completion: 0.243

Prompt: # lookup: self-splicing fitness (ln) of CUCAAGCAAUAUUACGUCGA
Completion: -3.37

Prompt: # lookup: self-splicing fitness (ln) of UGCCAGCAAUAUUACGAACC
Completion: -3.55

Continuing:
Prompt: # lookup: self-splicing fitness (ln) of AGCUAGCAAUAUUACGCGCG
Completion: -0.92

Prompt: # lookup: self-splicing fitness (ln) of UUCAAGCAAUAUUACGGCGA
Completion: 0.0413

Prompt: # lookup: self-splicing fitness (ln) of CCGCAGCAAUAUUACGCACU
Completion: -2.9
